All figures here come from patent US20240317801A1.

Each entry below carries its recorded Ki.
Biological target: Human Recombinant Matriptase 2 (Homo sapiens, UniProt Q8IU80)
Construct: purchased Enzo Life Sciences ALX-201-752-1
Sequence (Q8IU80 1-811): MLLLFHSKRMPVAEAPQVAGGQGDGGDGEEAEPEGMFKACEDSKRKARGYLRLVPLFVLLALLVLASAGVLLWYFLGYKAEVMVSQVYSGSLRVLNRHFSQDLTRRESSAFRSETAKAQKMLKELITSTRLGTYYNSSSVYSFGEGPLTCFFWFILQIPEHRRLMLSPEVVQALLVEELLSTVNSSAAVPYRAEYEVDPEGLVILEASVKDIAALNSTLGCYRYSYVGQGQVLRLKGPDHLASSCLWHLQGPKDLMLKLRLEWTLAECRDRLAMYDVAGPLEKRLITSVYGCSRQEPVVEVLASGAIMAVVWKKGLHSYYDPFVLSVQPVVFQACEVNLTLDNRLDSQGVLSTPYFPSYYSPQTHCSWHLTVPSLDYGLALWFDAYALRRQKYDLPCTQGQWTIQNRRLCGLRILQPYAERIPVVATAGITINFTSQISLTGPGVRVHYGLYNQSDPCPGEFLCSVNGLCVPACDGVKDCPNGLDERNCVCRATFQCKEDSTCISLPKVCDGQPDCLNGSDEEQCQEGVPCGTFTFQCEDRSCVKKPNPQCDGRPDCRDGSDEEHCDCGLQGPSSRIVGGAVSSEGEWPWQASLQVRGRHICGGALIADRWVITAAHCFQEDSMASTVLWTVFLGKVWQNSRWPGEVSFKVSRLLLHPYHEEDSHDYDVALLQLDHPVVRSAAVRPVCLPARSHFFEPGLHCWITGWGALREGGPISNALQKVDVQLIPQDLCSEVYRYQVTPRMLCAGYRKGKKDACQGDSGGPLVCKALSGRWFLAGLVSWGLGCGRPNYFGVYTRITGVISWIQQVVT
Assay: Matriptase 2 fluorescence-based inhibition assay (Boc-Gln-Ala-Arg-AMC substrate)
Type: biochemical
Details: Ki derived from measured IC50 using Cheng-Prusoff equation; 30 min preincubation, 100 μM substrate, 25° C., pH 7.5; read-out: Mat-2 Ki
Procedure: Test compounds were evaluated for their potential to inhibit Human Recombinant Matriptase 2 (in-house and commercial protein from Enzo Life Sciences—cat log—ALX-201-752-1) using fluorescence-based assay. […] The enzyme and the test compound were preincubated for 30 mins, and the plate was read at wavelength Ex: 360/Em:480 nm60 mins after substrate addition. […] Ki is the binding affinity of an inhibitor. […] Mat-2 Ki values are derived from the measured IC50. […]

molecule | subjectOfTest | Ki
C[C@@H](O)[C@H](NC(=O)[C@H](CCc1ccccc1)NC(=O)CCc1ccccc1)C(=O)N[C@@H](CCCNC(=N)N)C(=O)C(=O)NC1(C)CC1 | Human Recombinant Matriptase 2 (Homo sapiens, UniProt Q8IU80) | ≤ 100 nM

Exercise: Return reported Ki for target or system Human Recombinant Matriptase 2 (Homo sapiens, UniProt Q8IU80), item C[C@@H](O)[C@H](NC(=O)[C@H](CCc1ccccc1)NC(=O)CCc1ccccc1)C(=O)NC(CCc1nc(N)no1)C(=O)C(=O)NC(C)(C)C (stereo partly drawn) .
Key: ≥ 1000 nM

Exercise: Give Ki; test system Human Recombinant Matriptase 2 (Homo sapiens, UniProt Q8IU80); molecule C[C@@H](O)[C@H](NC(=O)C(CCc1ccccc1)NC(=O)CCc1ccccc1)C(=O)NC(Cc1ccc(N)nc1)C(=O)C(=O)NC1CC1 (stereo partly drawn)
Key: ≥ 1000 nM

Exercise: Fill in: Ki on Human Recombinant Matriptase 2 (Homo sapiens, UniProt Q8IU80), entry CNC(=O)C(O)C(CCCNC(=N)N)NC(=O)[C@@H](NC(=O)[C@H](CCc1ccccc1)NC(=O)CCc1ccccc1)[C@@H](C)O (stereo partly drawn)
Key: ≥ 1000 nM

Exercise: Return reported Ki for target or system Human Recombinant Matriptase 2 (Homo sapiens, UniProt Q8IU80), item C[C@@H](O)[C@H](NC(=O)[C@H](CCc1ccccc1)NC(=O)CCc1ccccc1)C(=O)N[C@@H](CCCNC(=N)N)C(=O)C(=O)NC1(c2cccnc2)CC1 .
Key: ≤ 100 nM

Exercise: Identify measured Ki obtained with Human Recombinant Matriptase 2 (Homo sapiens, UniProt Q8IU80) for CC(C)[C@H](NC(=O)[C@H](Cc1cscn1)NC(=O)OCc1ccccc1)C(=O)N[C@@H](CCCNC(=N)N)C(=O)C(=O)NC(C)(C)C .
Key: ≤ 100 nM
